- System: ACHN renal
- assayNotes: NCI tumour cell line growth inhibition, 48 h
property: TGI (µM)
Respond with the bare value in µM.

What TGI value was documented for this compound, Cc1cc(N2CCOCC2)nc(NCc2cc(Nc3ccnc4cc(Cl)ccc34)ccc2F)n1 ?
3.33

What TGI value was documented for this compound, Cc1ccc(-c2nc3sc(C)cn3c2/C=C2\C(=O)Nc3ccc(Cl)cc32)cc1 ?
16

* * *

Items are presented alongside their recorded TGI.
- Tested on: MDA-MB-435
- assayNotes: NCI tumour cell line growth inhibition, 48 h
Respond with the bare value in µM.

Example compounds with recorded TGI:
compound: Cc1ccnc(Nc2[nH]c(C(=O)c3ccc(Cl)cc3)c(N)c2C(=S)Nc2ccccc2)c1
reading: 35.3
//
compound: Fc1ccc(Nc2nc(Nc3ccc(-c4nc5ccccc5[nH]4)cc3)c3cn[nH]c3n2)cc1
reading: 3.23

What TGI value was documented for this compound, CC/C=C\C[C@H]1C/C=C2/C(=O)C(Cl)=C[C@@H]2C/C=C\CCCC(=O)O1 ?
1.43

What TGI value was documented for this compound, COC(=O)C12Oc3ccc(-c4ccc5c(c4O)C(O)=C4C(=O)CC(C)C(O)C4(C(=O)OC)O5)c(O)c3C(O)=C1C(=O)CC(C)C2O (stereo not given) ?
1.96

* * *

- Tested on: HT29 colon
- assayNotes: NCI tumour cell line growth inhibition, 48 h
Items are presented alongside their recorded log10 TGI.
Friendly reminder: values = log10 of TGI, unit µM.

Example compounds with recorded log10 TGI:
compound: COC(=O)C1(Cc2ccccc2)Cc2cc3c(cc2C1O)CCC3 (stereo not given)
reading: 1.50
//
compound: CCC(c1ccccc1)c1cc(C(C)(C)C)cc(C(C)(C)C)c1O (stereo not given)
reading: 1.45
//
compound: Cc1cc(C)c2c(n1)S(=O)(=O)N(CCCN1CCN(c3cccc(Cl)c3)CC1)/C(=C(\O)c1ccc(Br)cc1)C2=O
reading: 1.99
//
compound: CC(=O)Nc1ccc(/C=c2\sc3nnc(-c4cccnc4)n3c2=O)cc1
reading: 1.54
//
compound: CN1CCN(c2ccc(NC3=CC(=O)c4ncncc4C3=O)cc2)CC1
reading: 0.78
//
compound: Cc1ccnc(Nc2[nH]c(C(=O)c3ccc(Cl)cc3)c(N)c2C(=S)Nc2ccccc2)c1
reading: 1.46
//
compound: NC(=O)c1ncn(C2OC(CO)C(O)C2O)c1O (stereo not given)
reading: 1.67
//
compound: Cc1cc(N(CCNc2ccnc3cc(Cl)ccc23)Cc2ccc3c(c2)OCO3)nc(N2CCCC2)n1
reading: 0.56
//
compound: CCN(CC)C(=S)SS(C)(=O)=O
reading: 1.49
//
compound: CC(=O)c1c(C)c2cnc(Nc3ccc(N4CCNCC4)cn3)nc2n(C2CCCC2)c1=O
reading: 1.23

What log10 TGI value was documented for this compound, CCN(CC)c1ccc(C2N3CCCCC3[C@@H]3c4[nH]c5ccccc5c4CCN23)cc1 (stereo not given in full) ?
1.56

What log10 TGI value was documented for this compound, C=C(C)C(=O)Nc1ccc(-c2c(-c3ccc(Oc4nccc(C)n4)c(F)c3)c3c(N)ncnc3n2C)cc1 ?
1.15

* * *

- Tested on: MALME-3M melanoma
- assayNotes: NCI tumour cell line growth inhibition, 48 h
Items are presented alongside their recorded TGI.
Respond with the bare value in µM.

molecularString: Cc1cc(N2CCOCC2)nc(NCc2cc(Nc3ccnc4cc(Cl)ccc34)ccc2F)n1
reading: 3.68

// switching to the query compound
Lab request: please report TGI under test system MALME-3M melanoma for COC(=O)CC1=C(C)/C(=C/c2[nH]c(-c3ccc[nH]3)cc2OC)N=C1C
2.35
